Please provide measured inhibition for the entries that follow.
target: GABA A receptor alpha-2/beta-2/gamma-2 (Rattus norvegicus) (UniProt P18508+P23576+P63138); experiment: Displacement of [3H]flumazenil from rat GABAA alpha-2-beta-2-gamma-2 expressed in HEK293 cells at 10 uM; assay type: cell-based
Answers are plain numbers, in %.

CCCCNC(=O)C(=O)c1c[nH]c2ccccc12 : 7

Hey, can you go through the list below and give me inhibition for every item?
1. O=C(NCc1ccccc1)C(=O)c1c[nH]c2ccc([N+](=O)[O-])cc12
2. Cc1ccc(CNC(=O)C(=O)c2c[nH]c3ccc([N+](=O)[O-])cc23)cc1
3. O=C(NCc1ccccc1)C(=O)c1c[nH]c2ccccc12
4. CC#Cc1ccc(CNC(=O)C(=O)c2c[nH]c3ccccc23)cc1

32
0
39
16

====

target: GABA A receptor alpha-5/beta-3/gamma-2 (Rattus norvegicus) (UniProt P18508+P19969+P63079); test: Displacement of [3H]flumazenil from rat GABAA alpha-5-beta-3-gamma-2 expressed in HEK293 cells at 10 uM; assay type: cell-based
Please provide measured inhibition for the entries that follow.
Give bare numbers, in %.

For orientation, consider the following solved cases.
O=C(NCc1ccccc1)C(=O)c1c[nH]c2ccccc12 : 46
CCc1ccc(CNC(=O)C(=O)c2c[nH]c3ccccc23)cc1 : 40
CCCCNC(=O)C(=O)c1c[nH]c2ccccc12 : 28

Hey, can you go through the list below and give me inhibition for every item?
1. Cc1ccc(CNC(=O)C(=O)c2c[nH]c3ccc([N+](=O)[O-])cc23)cc1
2. O=C(NCc1ccccc1)C(=O)c1c[nH]c2ccc([N+](=O)[O-])cc12
3. CC#Cc1ccc(CNC(=O)C(=O)c2c[nH]c3ccccc23)cc1

0
44
13

====

species on record: Bos taurus; experiment: Displacement of [3H]flumazenil from benzodiazepine receptor in bovine brain membranes at 10 uM; assay type: cell membranes
endpoint name: inhibition (%)
Give bare numbers, in %.

C[Si](C)(C)C#Cc1ccc(CNC(=O)C(=O)c2c[nH]c3ccccc23)cc1 : 29
CCCCCCNC(=O)C(=O)c1c[nH]c2ccc([N+](=O)[O-])cc12 : 53

// next entry
Give the value of inhibition reported for the following: "CCc1ccc(CNC(=O)C(=O)c2c[nH]c3ccc([N+](=O)[O-])cc23)cc1"
42

====

Please provide measured Ki for the entries that follow.
assay: Displacement of [3H]flumazenil from benzodiazepine receptor in bovine brain membranes; format: cell membranes, Bos taurus
Give bare numbers, in µM.

For orientation, consider the following solved cases.
Cc1ccc(CNC(=O)C(=O)c2c[nH]c3ccc([N+](=O)[O-])cc23)cc1 : 0.088
CCCCCNC(=O)C(=O)c1c[nH]c2ccc([N+](=O)[O-])cc12 : 4.1
CC(C)NC(=O)C(=O)c1c[nH]c2ccc([N+](=O)[O-])cc12 : 0.0578
Cc1ccc(CNC(=O)C(=O)c2c[nH]c3ccccc23)cc1 : 0.606
CC#Cc1ccc(CNC(=O)C(=O)c2c[nH]c3ccccc23)cc1 : 3.27

Give the value of Ki reported for the following: "CCc1ccc(CNC(=O)C(=O)c2c[nH]c3ccccc23)cc1"
2.16

====

molecular target: GABA A receptor alpha-2/beta-2/gamma-2 (Rattus norvegicus, UniProt P18508+P23576+P63138); test: Displacement of [3H]flumazenil from rat GABAA alpha-2-beta-2-gamma-2 expressed in HEK293 cells
Sequence (P18508 whole entry): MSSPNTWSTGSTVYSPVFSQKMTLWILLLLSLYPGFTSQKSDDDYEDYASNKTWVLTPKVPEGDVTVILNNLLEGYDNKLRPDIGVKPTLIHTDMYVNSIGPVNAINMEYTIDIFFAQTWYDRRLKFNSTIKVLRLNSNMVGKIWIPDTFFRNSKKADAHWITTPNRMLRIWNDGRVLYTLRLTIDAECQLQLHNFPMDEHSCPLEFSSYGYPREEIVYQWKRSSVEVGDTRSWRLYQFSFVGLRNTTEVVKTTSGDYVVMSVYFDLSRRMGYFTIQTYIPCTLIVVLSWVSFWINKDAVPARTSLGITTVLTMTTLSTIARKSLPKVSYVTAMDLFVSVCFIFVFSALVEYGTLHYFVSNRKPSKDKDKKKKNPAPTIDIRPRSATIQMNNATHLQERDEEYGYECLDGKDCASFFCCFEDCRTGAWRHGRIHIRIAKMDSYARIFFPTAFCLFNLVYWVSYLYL
Sequence (P23576 whole entry): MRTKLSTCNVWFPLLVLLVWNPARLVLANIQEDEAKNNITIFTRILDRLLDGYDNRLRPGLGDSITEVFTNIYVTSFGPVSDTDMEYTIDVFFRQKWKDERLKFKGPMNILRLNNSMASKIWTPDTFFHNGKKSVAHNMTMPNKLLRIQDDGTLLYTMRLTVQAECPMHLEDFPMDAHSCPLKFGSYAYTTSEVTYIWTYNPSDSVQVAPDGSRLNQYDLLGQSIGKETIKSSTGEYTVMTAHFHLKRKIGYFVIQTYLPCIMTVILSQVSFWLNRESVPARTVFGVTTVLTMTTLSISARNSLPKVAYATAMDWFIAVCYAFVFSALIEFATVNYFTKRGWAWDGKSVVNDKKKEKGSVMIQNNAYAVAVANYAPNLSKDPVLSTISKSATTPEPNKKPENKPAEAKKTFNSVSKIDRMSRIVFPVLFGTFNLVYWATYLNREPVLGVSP
Sequence (P63138 whole entry): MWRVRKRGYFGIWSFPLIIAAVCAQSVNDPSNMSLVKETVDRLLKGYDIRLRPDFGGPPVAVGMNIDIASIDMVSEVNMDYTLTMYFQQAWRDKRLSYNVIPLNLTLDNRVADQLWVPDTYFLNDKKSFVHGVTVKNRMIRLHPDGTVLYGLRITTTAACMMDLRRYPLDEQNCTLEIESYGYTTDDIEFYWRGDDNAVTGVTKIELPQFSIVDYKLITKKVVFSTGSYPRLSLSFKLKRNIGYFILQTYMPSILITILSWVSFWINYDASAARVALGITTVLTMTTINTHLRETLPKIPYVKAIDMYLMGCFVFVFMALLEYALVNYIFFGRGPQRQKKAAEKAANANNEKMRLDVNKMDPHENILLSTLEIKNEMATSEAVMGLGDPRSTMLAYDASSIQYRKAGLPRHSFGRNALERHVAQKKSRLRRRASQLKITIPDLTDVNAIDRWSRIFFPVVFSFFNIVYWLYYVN
endpoint name: Ki (nM)
One number for each entry, in nM.

For orientation, consider the following solved cases.
O=C(NCc1ccc(Br)cc1)C(=O)c1c[nH]c2ccccc12 : 81
CCc1ccc(CNC(=O)C(=O)c2c[nH]c3ccccc23)cc1 : 1600
CC(C)NC(=O)C(=O)c1c[nH]c2ccc([N+](=O)[O-])cc12 : 175

Hey, can you go through the list below and give me Ki for every item?
1. CCCCNC(=O)C(=O)c1c[nH]c2ccc([N+](=O)[O-])cc12
2. C#Cc1ccc(CNC(=O)C(=O)c2c[nH]c3ccccc23)cc1

1: 553; 2: 414
